# TGT: human ACC2 (Homo sapiens)
# Construct: made in house; host or cells: insect cells (baculoviral expression system)
# ASSAY_COMMENT: ACC2 assay, spectrophotometric 384 well assay (NADH-linked, coupled lactate dehydrogenase/pyruvate kinase)
# Assay type: biochemical
# RUN_PARAMETERS: ACC2 assay, hACC2 construct lacking 128 N-terminal amino acids, 25° C., 340 nm; read-out: IC50
TEST_READOUT: log10 of IC50 (log10 of the value in nM)
Scale type: logarithmic (base 10). Underlying IC50 unit: nM.

Exercise: # log10 of IC50 lookup, item CC(=O)N[C@@H](C)c1ccc(C2CCN(c3ncc(-c4ccc(C#N)s4)cn3)CC2)cc1 [Example 10.63]
Key: 1.48

Exercise: State the recorded log10 of IC50 for this entry: CC(=O)N[C@@H](C)c1ccc(C2CCN(c3ncc(C(=O)NCC4CCCO4)cn3)CC2)cc1 (stereo partly shown) [Example 18.57]
Key: 4.35

Exercise: Fill in: log10 of IC50 of CC(=O)N[C@@H](C)c1ccc(C2CCN(c3ncc(-c4cc5ccc(C)cc5[nH]4)cn3)CC2)cc1 [Example 10.116] is ___
Key: 2.66

Exercise: Would you mind telling me what log10 of IC50 value was observed for C[C@H](NC(=O)N(C)C)c1ccc(C2CCN(c3cnc(OCC4CC4)nc3)CC2)cc1 [Example 16.6] ?
Key: 2.65

Exercise: Fill in: log10 of IC50 of CCC(CC)Oc1cccc(N2CCC(c3ccc([C@H](C)NC(C)=O)cc3)CC2)c1 [Example 9.16] is ___
Key: 2.84

Exercise: Any idea what log10 of IC50 was measured for CC(=O)N[C@@H](C)c1ccc(C2CCN(c3ccc(OC(C)C)c(Cl)c3)CC2)cc1 [Example 8.25] ?
Key: 2.85

Exercise: Bench note: what log10 of IC50 did CC(=O)N[C@@H](C)c1ccc(C2CCN(c3cc(-n4ccc(=N)cc4)ncn3)CC2)cc1 [Example 11.52] show?
Key: 4.27

Exercise: What value of log10 of IC50 has been reported for the following compound? CC(=O)N[C@@H](C)c1ccc(C2CCN(c3cccc(O)c3)CC2)cc1 [Example 1.27]
Key: 3.76

Exercise: # input compound: CC(=O)N[C@@H](C)c1ccc(C2CCN(c3ccc4c(c3)OCCCO4)CC2)cc1 [Example 1.44] ; wanted: its log10 of IC50
Key: 2.26

Exercise: What does the record list as log10 of IC50 for CNc1nccc(N2CCC(c3ccc([C@H](C)NC(C)=O)cc3)CC2)n1 [Example 11.84] ?
Key: 3.81

Exercise: Which measured log10 of IC50 value corresponds to CC(=O)N[C@@H](C)c1ccc(C2CCN(c3nc(C)cs3)CC2)cc1 [Example 5.22] ?
Key: 3.36

Exercise: Entry COc1ccc(Nc2cc(N3CCC(c4ccc([C@H](C)NC(C)=O)cc4)CC3)ncn2)cc1 [Example 11.53] has what log10 of IC50?
Key: 3.78

Exercise: Name the recorded log10 of IC50 for CC(=O)N[C@@H](C)c1ccc(C2CCN(c3nc(C(C)C)no3)CC2)cc1 [Example 25.1] .
Key: 3.43

Exercise: Return reported log10 of IC50; argument: C=CCCOc1ccc(N2CCC(c3ccc([C@H](C)NC(C)=O)cc3)CC2)cc1 [Example 9.27]
Key: 1.85

Exercise: Requested read-out: log10 of IC50. Entry: CC(=O)N[C@@H](C)c1ccc(C2CCN(c3ccc4sccc4c3)CC2)cc1 [Example 1.69]
Key: 3.60

Exercise: Which log10 of IC50 is reported for this compound? CC(=O)N[C@@H](C)c1ccc(C2CCN(c3ccc(O)cc3F)CC2)cc1 [Example 1.65]
Key: 4.30

* * *

# TGT: human ACC2 (Homo sapiens)
# Construct: made in house; host or cells: insect cells (baculoviral expression system)
# ASSAY_COMMENT: ACC2 assay, spectrophotometric 384 well assay (NADH-linked, coupled lactate dehydrogenase/pyruvate kinase)
# Format: biochemical
# RUN_PARAMETERS: ACC2 assay, hACC2 construct lacking 128 N-terminal amino acids, 25° C., 340 nm; read-out: IC50
TEST_READOUT: IC50 (nM)
// units = nM; emit number, no label

Exercise: What value of measured IC50 is listed for "CC(=O)N[C@@H](C)c1ccc(C2CCN(c3ncnc4ccccc34)CC2)cc1" ?
Key: 950

Exercise: Bench note: what IC50 did CCC(C)Oc1cccc(N2CCC(c3ccc([C@H](C)NC(C)=O)cc3)CC2)c1 (some centres unmarked) show?
Key: 230

Exercise: Report IC50 for "CCOc1cccc(-c2cnc(N3CCC(c4ccc([C@H](C)NC(C)=O)cc4)CC3)c(F)c2)c1" please.
Key: 310

Exercise: Name the reported IC50 value associated with the molecule "CCOc1ccc(N2CCC(c3ccc([C@H](C)NC(C)=S)cc3)CC2)c(F)c1"
Key: 290

Exercise: Reported IC50 for "CCOc1ccc(N2CCC(c3ccc([C@H](C)NC(=O)N(C)CCc4cn[nH]c4)cc3)CC2)cc1" : what is it?
Key: 530

Exercise: Please give the measured IC50 for this molecule: "CCOc1ccc(N2CCC(c3ccc([C@H](C)NC(=O)C4CC4)cc3)CC2)c(F)c1"
Key: 160

Exercise: Sample "CCOc1cc(N2CCC(c3ccc([C@H](C)NC(=O)C4CC4)cc3)CC2)ccn1" — what was its IC50?
Key: 290

Exercise: Can you share its IC50? I mean this molecule: "CCNC(=O)N[C@@H](C)c1ccc(C2CCN(c3ccc(OCC)cc3)CC2)cc1"
Key: 2700

* * *

Exercise: for every item that follows, state its recorded pIC50.
# TGT: human ACC2 (Homo sapiens, UniProt O00763)
# Construct: made in house; host or cells: insect cells (baculoviral expression system)
# Sequence (O00763 129-2458 limits assumed): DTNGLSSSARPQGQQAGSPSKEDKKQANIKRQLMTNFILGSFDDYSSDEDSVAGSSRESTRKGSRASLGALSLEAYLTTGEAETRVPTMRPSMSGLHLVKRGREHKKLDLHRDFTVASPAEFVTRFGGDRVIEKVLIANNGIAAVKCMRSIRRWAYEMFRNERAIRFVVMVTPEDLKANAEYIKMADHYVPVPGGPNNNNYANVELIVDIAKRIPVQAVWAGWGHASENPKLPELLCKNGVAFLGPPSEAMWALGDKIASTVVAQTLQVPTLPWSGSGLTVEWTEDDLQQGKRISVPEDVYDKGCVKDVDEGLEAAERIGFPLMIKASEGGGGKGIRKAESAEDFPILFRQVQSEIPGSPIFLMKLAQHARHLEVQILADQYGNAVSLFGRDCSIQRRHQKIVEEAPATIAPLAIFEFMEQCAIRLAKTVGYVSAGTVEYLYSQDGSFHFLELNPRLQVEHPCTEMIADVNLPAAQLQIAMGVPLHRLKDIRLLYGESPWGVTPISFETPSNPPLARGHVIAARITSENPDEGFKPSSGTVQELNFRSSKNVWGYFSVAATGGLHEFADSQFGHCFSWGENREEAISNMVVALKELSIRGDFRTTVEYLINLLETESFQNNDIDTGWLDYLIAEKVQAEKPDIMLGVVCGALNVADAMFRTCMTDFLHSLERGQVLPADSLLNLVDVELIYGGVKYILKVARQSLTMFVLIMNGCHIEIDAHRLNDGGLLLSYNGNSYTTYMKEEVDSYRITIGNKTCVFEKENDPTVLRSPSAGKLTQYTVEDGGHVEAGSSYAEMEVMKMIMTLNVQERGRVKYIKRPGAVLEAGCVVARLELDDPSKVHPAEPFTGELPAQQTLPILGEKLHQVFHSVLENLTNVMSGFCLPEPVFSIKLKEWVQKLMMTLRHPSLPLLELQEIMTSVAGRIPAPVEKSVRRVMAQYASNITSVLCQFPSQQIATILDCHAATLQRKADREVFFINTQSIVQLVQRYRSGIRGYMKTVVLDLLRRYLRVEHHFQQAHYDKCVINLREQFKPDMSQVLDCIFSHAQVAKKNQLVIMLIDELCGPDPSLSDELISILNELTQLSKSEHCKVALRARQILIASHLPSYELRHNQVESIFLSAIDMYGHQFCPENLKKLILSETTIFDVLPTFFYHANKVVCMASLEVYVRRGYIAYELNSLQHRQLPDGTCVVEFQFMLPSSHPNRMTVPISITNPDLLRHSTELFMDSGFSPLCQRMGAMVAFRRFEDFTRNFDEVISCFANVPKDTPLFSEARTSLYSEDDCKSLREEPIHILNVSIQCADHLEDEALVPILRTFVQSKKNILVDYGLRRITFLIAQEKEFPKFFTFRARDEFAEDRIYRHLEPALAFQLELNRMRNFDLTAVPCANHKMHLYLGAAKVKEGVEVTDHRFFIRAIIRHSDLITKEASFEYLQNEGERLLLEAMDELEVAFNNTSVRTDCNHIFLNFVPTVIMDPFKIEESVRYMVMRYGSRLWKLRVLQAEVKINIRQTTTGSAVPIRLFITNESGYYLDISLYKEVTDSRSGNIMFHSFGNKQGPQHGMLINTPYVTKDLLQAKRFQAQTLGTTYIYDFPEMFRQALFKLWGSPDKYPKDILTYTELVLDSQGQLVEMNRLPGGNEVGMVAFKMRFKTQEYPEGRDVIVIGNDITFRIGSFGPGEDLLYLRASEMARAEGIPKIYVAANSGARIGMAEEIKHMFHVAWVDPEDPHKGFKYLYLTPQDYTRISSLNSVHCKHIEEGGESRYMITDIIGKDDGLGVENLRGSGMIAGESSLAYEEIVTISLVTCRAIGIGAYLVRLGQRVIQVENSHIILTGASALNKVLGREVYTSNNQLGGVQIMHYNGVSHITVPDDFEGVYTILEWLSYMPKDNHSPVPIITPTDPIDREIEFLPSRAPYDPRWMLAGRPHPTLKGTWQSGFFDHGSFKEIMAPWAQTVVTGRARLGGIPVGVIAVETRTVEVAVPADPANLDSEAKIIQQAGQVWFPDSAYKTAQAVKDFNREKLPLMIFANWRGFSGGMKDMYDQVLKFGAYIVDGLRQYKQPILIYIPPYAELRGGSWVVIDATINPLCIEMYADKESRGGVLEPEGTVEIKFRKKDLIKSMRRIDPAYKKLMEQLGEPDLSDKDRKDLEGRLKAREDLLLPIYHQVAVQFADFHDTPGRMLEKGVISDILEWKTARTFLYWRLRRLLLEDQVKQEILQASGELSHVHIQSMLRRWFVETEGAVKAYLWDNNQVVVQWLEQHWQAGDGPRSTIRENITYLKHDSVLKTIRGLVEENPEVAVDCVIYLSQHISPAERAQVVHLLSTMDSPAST
# ASSAY_COMMENT: ACC2 assay, spectrophotometric 384 well assay (NADH-linked, coupled lactate dehydrogenase/pyruvate kinase)
# Format: biochemical
# RUN_PARAMETERS: ACC2 assay, hACC2 construct lacking 128 N-terminal amino acids, 25° C., 340 nm; read-out: IC50
For clarity, pIC50 is expressed as the negative log10 of concentration in mol/L.

Exercise: What reported pIC50 corresponds to "CCOc1ccc(N2CCC(c3ccc([C@H](C)NC(=O)NC4CC4)cc3)CC2)cc1" on human ACC2 (Homo sapiens, UniProt O00763)?
Key: 5.85

Exercise: # returns recorded pIC50 (system: human ACC2 (Homo sapiens, UniProt O00763)) for "CCCCOc1ccc(N2CCC(c3ccc([C@H](C)NC(C)=O)cc3)CC2)nn1"
Key: 6.33

Exercise: Reported pIC50 for human ACC2 (Homo sapiens, UniProt O00763), given "CC(C)Oc1ncnc(N2CCC(c3ccc([C@H](C)NC(=O)C4CC4)cc3)CC2)c1F" ?
Key: 6.43

Exercise: Item: "CCOc1ccc(N2CCC(c3ccc([C@H](C)NC(=O)OC)cc3)CC2)cc1" Test system: human ACC2 (Homo sapiens, UniProt O00763) Read-out: pIC50 Value: ?
Key: 6.46

Exercise: I'm curious: which pIC50 was measured for "CCOc1ccc(N2CCC(c3ccc([C@H](C)NC(C)=O)cc3)CC2)cc1" tested on human ACC2 (Homo sapiens, UniProt O00763)?
Key: 6.89

Exercise: Requested read-out pIC50, target or system human ACC2 (Homo sapiens, UniProt O00763), entry "CCOc1ccc(N2CCC(c3ccc([C@H](C)NC(=O)N(C)C)cc3)CC2)nc1"
Key: 6.51

Exercise: Test system human ACC2 (Homo sapiens, UniProt O00763); read-out pIC50; what value for "CCOc1nccc(N2CCC(c3ccc([C@H](C)NC(C)=O)cc3)CC2)n1" ?
Key: 6.03

Exercise: API: value(readout=pIC50, system=human ACC2 (Homo sapiens, UniProt O00763)) for record "CC(=O)N[C@@H](C)c1ccc(C2CCN(c3ccnc(NC4CCC4)n3)CC2)cc1"
Key: 5.82

* * *

# TGT: human ACC2 (Homo sapiens)
# Construct: made in house; host or cells: insect cells (baculoviral expression system)
# ASSAY_COMMENT: ACC2 assay, spectrophotometric 384 well assay (NADH-linked, coupled lactate dehydrogenase/pyruvate kinase)
# Assay type: biochemical
# RUN_PARAMETERS: ACC2 assay, hACC2 construct lacking 128 N-terminal amino acids, 25° C., 340 nm; read-out: IC50
TEST_READOUT: pIC50
Just the number, please; pIC50 means minus log10 of the concentration in mol/L.

Exercise: Field request: pIC50 | item: "C[C@H](NC(=O)C1CC1)c1ccc(C2CCN(c3ccc(OCCC4CC4)cc3)CC2)cc1"
Key: 6.92

Exercise: Data request, read-out pIC50, for "CC(=O)N[C@@H](C)c1ccc(C2CCN(c3ncc(C(=O)NCCC#N)cn3)CC2)cc1"
Key: 4.57

Exercise: Sample "CCOC(=O)c1cnnc(N2CCC(c3ccc([C@H](C)NC(C)=O)cc3)CC2)c1" — what was its pIC50?
Key: 5.12

Exercise: What value of measured pIC50 is listed for "CC(=O)N[C@@H](C)c1ccc(C2CCN(c3ccnc(NCC4CCC4)n3)CC2)cc1" ?
Key: 5.77

Exercise: Fill blank: measured pIC50 of the compound "CC(=O)N[C@@H](C)c1ccc(C2CCN(c3cc(C(F)(F)F)ncn3)CC2)cc1" is ____.
Key: 5.80

Exercise: // query pIC50 value for entry "C[C@H](NC(=O)C1CC1)c1ccc(C2CCN(c3ccc(OC4CCCC4)cc3)CC2)cc1"
Key: 7.22

Exercise: # lookup: pIC50 of "CCOc1ccc(-c2cnc(N3CCC(c4ccc([C@H](C)NC(C)=O)cc4)CC3)nc2)cc1"
Key: 6.27

Exercise: // lookup pIC50 for C[C@H](NC(=O)N(C)C)c1ccc(C2CCN(c3ccc(OCC4CC4(F)F)cc3)CC2)cc1 (some centres unmarked)
Key: 7.05
